Measured values drawn from patent US10479780B2 for this set.

target: human Src enzyme (Homo sapiens, UniProt P12931)
Construct: purchased Carna Biosciences, Inc. 08-173
Sequence (P12931 whole entry): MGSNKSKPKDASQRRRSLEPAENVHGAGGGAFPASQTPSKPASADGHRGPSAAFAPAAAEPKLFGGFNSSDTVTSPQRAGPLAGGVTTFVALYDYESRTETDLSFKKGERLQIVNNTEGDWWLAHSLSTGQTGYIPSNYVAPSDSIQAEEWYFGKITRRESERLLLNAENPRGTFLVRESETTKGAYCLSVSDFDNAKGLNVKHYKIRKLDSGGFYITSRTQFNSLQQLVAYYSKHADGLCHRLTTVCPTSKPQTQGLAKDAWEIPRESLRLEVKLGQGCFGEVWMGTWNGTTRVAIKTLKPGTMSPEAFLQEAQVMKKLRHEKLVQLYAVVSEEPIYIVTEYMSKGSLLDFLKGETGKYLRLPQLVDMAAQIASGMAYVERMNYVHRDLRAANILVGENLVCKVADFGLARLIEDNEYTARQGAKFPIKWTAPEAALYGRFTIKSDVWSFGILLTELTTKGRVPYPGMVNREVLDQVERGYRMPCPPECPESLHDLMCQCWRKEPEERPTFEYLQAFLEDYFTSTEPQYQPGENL
measurement_description: Src enzyme inhibitory activity (time-resolved fluorometry, biotinylated peptide phosphorylation)
Type: biochemical
measurement_setup: biotinylated peptide phosphorylation, read-out: SRC_IC50
What pIC50 was measured for each of the following?
Keep it numeric: pIC50 is minus log10 of the concentration in mol/L.

Ask: // query pIC50 value for entry Cc1cc(Oc2ccccc2F)ccc1-n1ncc(C(=O)c2cc3cc(OC(F)F)c(NS(C)(=O)=O)cc3[nH]2)c1N
Reply: 7.46

Ask: // query pIC50 value for entry Cc1cc(Oc2cccc(Cl)c2)ncc1-n1ncc(C(=O)c2cc3cc(F)c(NS(C)(=O)=O)cc3[nH]2)c1N
Reply: 7.11

Ask: // query pIC50 value for entry Cc1cc(Oc2ccccc2F)ccc1-n1ncc(C(=O)c2cc3cc(F)c(NS(=O)(=O)C4CC4)cc3[nH]2)c1N
Reply: 7.38

Ask: // query pIC50 value for entry Cc1cc(Oc2ccccc2F)ccc1-n1ncc(C(=O)c2cc3cc(OC(F)F)c(NS(=O)(=O)C4CC4)cc3[nH]2)c1N
Reply: 6.96

Ask: // query pIC50 value for entry Cc1cc(Oc2ccccc2F)cc(F)c1-n1ncc(C(=O)c2cc3cc(OC(F)F)c(N4CCOC4=O)cc3[nH]2)c1N
Reply: 7.37

Ask: // query pIC50 value for entry Cc1cc(Oc2ccccc2F)ncc1-n1ncc(C(=O)c2cc3cc(N(CCN4CCOCC4)S(C)(=O)=O)c(O)cc3[nH]2)c1N
Reply: 7.47
